# IC50 listing for each entry below
TESTED TARGET: immunoproteasome LMP7/B5i subunit (Homo sapiens, UniProt P20618+P28062)
PROCEDURE SUMMARY: Caliper-based proteasome enzymatic activity assay, LMP7
STUDY CONDITIONS: human recombinant immunoproteasome 0.3 nM, FAM-peptide substrate 1 μM, 3 h at rt
Write the value in nM as a bare number.

# COMPOUND, TESTED TARGET, IC50 (nM)
rows = [
    ("C=CC(=O)N1C[C@@H](F)C[C@@H]1COC(=O)N[C@@H](Cc1ccccc1)B(O)O [Example 100]", "immunoproteasome LMP7/B5i subunit (Homo sapiens, UniProt P20618+P28062)", 21),
    ("CC(C)(C=C(C#N)C(=O)N1CCCC[C@@H]1COC(=O)N[C@@H](Cc1coc2ccccc12)B(O)O)N1CCC(F)(F)CC1 [Example 66]", "immunoproteasome LMP7/B5i subunit (Homo sapiens, UniProt P20618+P28062)", 2.1),
]

Fill in the blank: the reported IC50 of CC(C)(C=C(C#N)C(=O)N1CCCC[C@@H]1COC(=O)N[C@@H](Cc1ccccc1C(F)(F)F)B(O)O)N1CCC(F)(F)C1 [Example 110] is ____.
22
